# assay protocol: Cytotoxicity against mouse L929 cells assessed as cell viability at 1.56 ug/ml after 24 hrs by MTT assay relative to control
# Format: cell-based
# condition info: read-out: Activity
readout: viability at 24 h, 1.56 ug/ml

given_smiles=C(=N\Nc1nc(C23CC4CC(CC(C4)C2)C3)cs1)/c1cc2ccccc2s1 readout="viability at 24 h, 1.56 ug/ml" reported_value=105%

###

# assay protocol: Cytotoxicity against mouse L929 cells assessed as cell viability at 0.78 ug/ml after 24 hrs by MTT assay relative to control
# Type: cell-based
# condition info: read-out: Activity
readout: viability at 24 h, 0.78 ug/ml

given_smiles=C(=N\Nc1nc(C23CC4CC(CC(C4)C2)C3)cs1)/c1cc2ccccc2s1 readout="viability at 24 h, 0.78 ug/ml" reported_value=107%
